Exercise: state measured MIC for each of the molecules provided.
Tested on: Streptococcus faecalis
Experiment: In vitro antibacterial activity against eleven strains of Streptococcus faecalis (agar dilution method; tube dilution per footnote)
Type: cell-based
Details: Enterococcus faecalis, geometric mean against eleven strains of Streptococcus faecalis

Which value of MIC has been reported for Cc1nnc(SCC2=C(C(=O)O)N3C(=O)C(NC(=O)CSc4cc(Cl)ccc4Cl)C3SC2)s1 (stereo not drawn) in the records?
1.29 mg/L

Which value of MIC has been reported for Cn1nnnc1SCC1=C(C(=O)O)N2C(=O)C(NC(=O)CSc3cc(Cl)ccc3Cl)C2SC1 (stereo not drawn) in the records?
3.11 mg/L

Which value of MIC has been reported for O=C(CSc1cc(Cl)ccc1Cl)NC1C(=O)N2C(C(=O)O)=C(CO)CS[C@H]12 (stereo partly drawn) in the records?
3.11 mg/L

Which value of MIC has been reported for O=C(CSc1cc(Cl)ccc1Cl)NC1C(=O)N2C(C(=O)O)=C(CSc3ncco3)CSC12 (stereo not drawn) in the records?
1.88 mg/L

Which value of MIC has been reported for Cn1nnnc1SCC1=C(C(=O)O)N2C(=O)C(NC(=O)CSc3ccc(Cl)c(Cl)c3)C2SC1 (stereo not drawn) in the records?
4.83 mg/L

Which value of MIC has been reported for O=C(CSc1cc(Cl)ccc1Cl)NC1C(=O)N2C(C(=O)O)=C(CSc3cnsn3)CSC12 (stereo not drawn) in the records?
1.37 mg/L

Which value of MIC has been reported for Cn1c(SCC2=C(C(=O)O)N3C(=O)C(NC(=O)CSc4cc(Cl)ccc4Cl)C3SC2)nnc(O)c1=O (stereo not drawn) in the records?
3.76 mg/L

Which value of MIC has been reported for Cc1nnc(SCC2=C(C(=O)O)N3C(=O)C(NC(=O)CSc4ccc(Cl)c(Cl)c4)C3SC2)s1 (stereo not drawn) in the records?
1.76 mg/L

Which value of MIC has been reported for Cc1nsc(SCC2=C(C(=O)O)N3C(=O)C(NC(=O)CSc4cc(Cl)ccc4Cl)C3SC2)n1 (stereo not drawn) in the records?
1.88 mg/L

Which value of MIC has been reported for Nc1nnc(SCC2=C(C(=O)O)N3C(=O)C(NC(=O)CSc4cc(Cl)ccc4Cl)C3SC2)s1 (stereo not drawn) in the records?
4.26 mg/L

Which value of MIC has been reported for Cc1nnc(SCC2=C(C(=O)O)N3C(=O)C(NC(=O)CSc4cc(Cl)ccc4Cl)C3SC2)o1 (stereo not drawn) in the records?
2.13 mg/L

Which value of MIC has been reported for CC(=O)OCC1=C(C(=O)O)N2C(=O)C(NC(=O)CSc3cc(Cl)ccc3Cl)C2SC1 (stereo not drawn) in the records?
2 mg/L

Taken from patent US4311837A.
